Measured F/Fo, fluorescent intensity at 8 hours vs 0 hours, listed per entry.
# Experiment description: Primary screening of photostability of the CyNA library (time-course fluorescence, 8 h)
# Type: physicochemical
# Design: unit: %
# Protocol conditions: 10 μM in HEPES 100 mM pH 7.4, 2% DMSO
Experimental endpoint: F/Fo, fluorescent intensity at 8 hours vs 0 hours

Compound | Readout number
CCCN1/C(=C/C=C2\CCCC(/C=C/C3=[N+](CCC)c4ccccc4C3(C)C)=C2N(Cc2ccccc2Br)C(C)=O)C(C)(C)c2ccccc21 [CyNA-329] | 99
CCCN1/C(=C/C=C2\CCCC(/C=C/C3=[N+](CCC)c4ccccc4C3(C)C)=C2N(Cc2ccccc2C)C(C)=O)C(C)(C)c2ccccc21 [CyNA-101] | 86
CCCN1/C(=C/C=C2\CCCC(/C=C/C3=[N+](CCC)c4ccccc4C3(C)C)=C2N(CCc2ccc(OC)cc2)C(C)=O)C(C)(C)c2ccccc21 [CyNA-395] | 95

----------
# Experiment description: Primary screening of photostability of the CyNA library (time-course fluorescence, 8 h)
# Type: physicochemical
# Protocol conditions: 10 μM in HEPES 100 mM pH 7.4, 2% DMSO
Exam item: assign true to entries whose max RFU, maximum relative fluorescence units is below 200 and false to entries at or above 200. Note that a value of exactly 200 receives false.

Compound | Class assignment
CCCN1/C(=C/C=C2\CCCC(/C=C/C3=[N+](CCC)c4ccccc4C3(C)C)=C2N(CCCN2CCCCC2C)C(C)=O)C(C)(C)c2ccccc21.[I-] (stereo not drawn) [CyNA-414] | false
CCCN1/C(=C/C=C2\CCCC(/C=C/C3=[N+](CCC)c4ccccc4C3(C)C)=C2N(CCc2ccccc2Cl)C(C)=O)C(C)(C)c2ccccc21 [CyNA-480] | true
CCCN1/C(=C/C=C2\CCCC(/C=C/C3=[N+](CCC)c4ccccc4C3(C)C)=C2N(Cc2ccccc2C)C(C)=O)C(C)(C)c2ccccc21 [CyNA-101] | false
CCCCCCCCCCCCCCN(C(C)=O)C1=C(/C=C/C2=[N+](CCC)c3ccccc3C2(C)C)CCC/C1=C\C=C1\N(CCC)c2ccccc2C1(C)C [CyNA-28] | true
CCCN1/C(=C/C=C2\CCCC(/C=C/C3=[N+](CCC)c4ccccc4C3(C)C)=C2N(Cc2ccccc2OC)C(C)=O)C(C)(C)c2ccccc21 [CyNA-388] | false
CCCN1/C(=C/C=C2\CCCC(/C=C/C3=[N+](CCC)c4ccccc4C3(C)C)=C2N(CCc2ccc(CC)cc2)C(C)=O)C(C)(C)c2ccccc21 [CyNA-201] | true

----------
# Experiment description: Absorbance and fluorescence maximum wavelengths and quantum yields of the CyNA library
# Format: physicochemical
# Protocol conditions: CyNA library
Measured λem, fluorescence maximum wavelength, listed per entry.

Compound | λem, fluorescence maximum wavelength (nm)
CCCN1/C(=C/C=C2\CCCC(/C=C/C3=[N+](CCC)c4ccccc4C3(C)C)=C2N(CCCCc2ccccc2)C(C)=O)C(C)(C)c2ccccc21 | 819
CCCCC(CC)COCCCN(C(C)=O)C1=C(/C=C/C2=[N+](CCC)c3ccccc3C2(C)C)CCC/C1=C\C=C1\N(CCC)c2ccccc2C1(C)C (stereo not drawn) | 822
CCCN1/C(=C/C=C2\CCCC(/C=C/C3=[N+](CCC)c4ccccc4C3(C)C)=C2N(Cc2c(OC)cc(OC)cc2OC)C(C)=O)C(C)(C)c2ccccc21 | 820
CCCCCCCCCCCCCN(C(C)=O)C1=C(/C=C/C2=[N+](CCC)c3ccccc3C2(C)C)CCC/C1=C\C=C1\N(CCC)c2ccccc2C1(C)C | 819
CCCN1/C(=C/C=C2\CCCC(/C=C/C3=[N+](CCC)c4ccccc4C3(C)C)=C2N(Cc2ccccc2OCC)C(C)=O)C(C)(C)c2ccccc21 | 821
CCCN1/C(=C/C=C2\CCCC(/C=C/C3=[N+](CCC)c4ccccc4C3(C)C)=C2N(CC(C)CC)C(C)=O)C(C)(C)c2ccccc21 (stereo not drawn) | 818

----------
# Experiment description: Absorbance and fluorescence maximum wavelengths and quantum yields of the CyNA library
# Format: physicochemical
# Protocol conditions: CyNA library
Measured λabs, absorbance maximum wavelength, listed per entry.

Input smiles | λabs, absorbance maximum wavelength (nm)
CCCN1/C(=C/C=C2\CCCC(/C=C/C3=[N+](CCC)c4ccccc4C3(C)C)=C2N(C(C)=O)C2CCCC2)C(C)(C)c2ccccc21 | 805
CCCN1/C(=C/C=C2\CCCC(/C=C/C3=[N+](CCC)c4ccccc4C3(C)C)=C2N(Cc2cccc3ccccc23)C(C)=O)C(C)(C)c2ccccc21 | 805
CCCCCCCCCCN(C(C)=O)C1=C(/C=C/C2=[N+](CCC)c3ccccc3C2(C)C)CCC/C1=C\C=C1\N(CCC)c2ccccc2C1(C)C | 805
CCCN1/C(=C/C=C2\CCCC(/C=C/C3=[N+](CCC)c4ccccc4C3(C)C)=C2N(CCc2ccccc2F)C(C)=O)C(C)(C)c2ccccc21 | 805
CCCN1/C(=C/C=C2\CCCC(/C=C/C3=[N+](CCC)c4ccccc4C3(C)C)=C2N(CCc2ccc([N+](=O)[O-])cc2)C(C)=O)C(C)(C)c2ccccc21 | 805
CCCN1/C(=C/C=C2\CCCC(/C=C/C3=[N+](CCC)c4ccccc4C3(C)C)=C2N(CC2CCCCC2)C(C)=O)C(C)(C)c2ccccc21 | 804

----------
# Experiment description: Time-course fluorescence measurements (photobleaching rate constants) of CyN and CyNA derivatives in HEPES buffer
# Assay type: physicochemical
# Protocol conditions: 10 μM in 10 mM HEPES pH 7.4, 1% DMSO; pseudo-first order

Input smiles | Units symbol | k, rate of photobleaching
CCCN1/C(=C/C=C2\CCCC(/C=C/C3=[N+](CCC)c4ccccc4C3(C)C)=C2N(CCCOC)C(C)=O)C(C)(C)c2ccccc21.[I-] | s⁻¹ | 4.53e-06
CCCN1/C(=C/C=C2\CCCC(/C=C/C3=[N+](CCC)c4ccccc4C3(C)C)=C2NCCCOC)C(C)(C)c2ccccc21.[I-] | s⁻¹ | 3.49e-05
CCCN1/C(=C/C=C2\CCCC(/C=C/C3=[N+](CCC)c4ccccc4C3(C)C)=C2N(CC)C(C)=O)C(C)(C)c2ccccc21.[I-] | s⁻¹ | 3.81e-06
CCCN1/C(=C/C=C2\CCCC(/C=C/C3=[N+](CCC)c4ccccc4C3(C)C)=C2N(CCc2ccccn2)C(C)=O)C(C)(C)c2ccccc21.[I-] | s⁻¹ | 3.41e-06

----------
# Experiment description: Absorbance and fluorescence maximum wavelengths and quantum yields of the CyNA library
# Format: physicochemical
# Protocol conditions: CyNA library
# Description: Since the k values of the different CyNA compounds indicated some dependency on the chemical structure of the amine, the CyNA scaffold was derivatized with a broad range of primary amines (FIGS. 4A-4C). The fluorescence properties of the 80-member CyNA library were measured. The absorption maximum wavelengths ranged from 802 nm to 806 nm, emission maximum wavelengths ranged from 817 nm to 823 nm, and the average quantum yield was approximately 0.10 (Table 2). […]
Experimental endpoint: λabs, absorbance maximum wavelength

Compound | Experimental endpoint | Result
CCCN1/C(=C/C=C2\CCCC(/C=C/C3=[N+](CCC)c4ccccc4C3(C)C)=C2N(CC)C(C)=O)C(C)(C)c2ccccc21.[I-] [CyNA-295] | λabs, absorbance maximum wavelength | 806 nm
CCCN1/C(=C/C=C2\CCCC(/C=C/C3=[N+](CCC)c4ccccc4C3(C)C)=C2N(Cc2ccccc2OCC)C(C)=O)C(C)(C)c2ccccc21 [CyNA-103] | λabs, absorbance maximum wavelength | 804 nm
CCCN1/C(=C/C=C2\CCCC(/C=C/C3=[N+](CCC)c4ccccc4C3(C)C)=C2N(CCCOCC)C(C)=O)C(C)(C)c2ccccc21 [CyNA-167] | λabs, absorbance maximum wavelength | 804 nm
CCCN1/C(=C/C=C2\CCCC(/C=C/C3=[N+](CCC)c4ccccc4C3(C)C)=C2N(Cc2ccccn2)C(C)=O)C(C)(C)c2ccccc21 [CyNA-401] | λabs, absorbance maximum wavelength | 805 nm
CCCN1/C(=C/C=C2\CCCC(/C=C/C3=[N+](CCC)c4ccccc4C3(C)C)=C2N(Cc2ccc(F)cc2F)C(C)=O)C(C)(C)c2ccccc21 [CyNA-399] | λabs, absorbance maximum wavelength | 804 nm
CCCN1/C(=C/C=C2\CCCC(/C=C/C3=[N+](CCC)c4ccccc4C3(C)C)=C2N(C(C)=O)C2CCCCCCC2)C(C)(C)c2ccccc21 [CyNA-219] | λabs, absorbance maximum wavelength | 804 nm
CCCN1/C(=C/C=C2\CCCC(/C=C/C3=[N+](CCC)c4ccccc4C3(C)C)=C2N(CCCc2ccccc2)C(C)=O)C(C)(C)c2ccccc21 [CyNA-335] | λabs, absorbance maximum wavelength | 804 nm
CCCN1/C(=C/C=C2\CCCC(/C=C/C3=[N+](CCC)c4ccccc4C3(C)C)=C2N(Cc2ccccc2F)C(C)=O)C(C)(C)c2ccccc21 [CyNA-375] | λabs, absorbance maximum wavelength | 804 nm
CCCN1/C(=C/C=C2\CCCC(/C=C/C3=[N+](CCC)c4ccccc4C3(C)C)=C2N(Cc2c(OC)cc(OC)cc2OC)C(C)=O)C(C)(C)c2ccccc21 [CyNA-336] | λabs, absorbance maximum wavelength | 804 nm
CCCN1/C(=C/C=C2\CCCC(/C=C/C3=[N+](CCC)c4ccccc4C3(C)C)=C2N(CCCN2CCCCC2C)C(C)=O)C(C)(C)c2ccccc21.[I-] (stereo not drawn) [CyNA-414] | λabs, absorbance maximum wavelength | 804 nm
CCCN1/C(=C/C=C2\CCCC(/C=C/C3=[N+](CCC)c4ccccc4C3(C)C)=C2N(Cc2cccc(OC)c2OC)C(C)=O)C(C)(C)c2ccccc21 [CyNA-124] | λabs, absorbance maximum wavelength | 803 nm
CCCN1/C(=C/C=C2\CCCC(/C=C/C3=[N+](CCC)c4ccccc4C3(C)C)=C2N(CCc2ccccc2-c2ccccc2)C(C)=O)C(C)(C)c2ccccc21 [CyNA-599] | λabs, absorbance maximum wavelength | 805 nm
